Could you please report measured yeast fitness for the items listed next?
B1: tRNA (parent)
chain: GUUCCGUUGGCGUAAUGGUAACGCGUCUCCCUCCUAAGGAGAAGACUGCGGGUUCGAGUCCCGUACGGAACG

# Variants of: B1
# RUN_DESCRIPTION: yeast fitness relative to wild type (ratio to wild type); higher = fitter; tRNA-Arg(CCU), competitive growth, 37 C, YPD
Fewer inactive variants are shown than the library holds.
Answers are plain numbers.

{"VARIANT_SPEC": "G10C U47C", "yeast fitness": 0.695}
{"VARIANT_SPEC": "C62G A65U A69U", "yeast fitness": 0.535}
{"VARIANT_SPEC": "C4U G63A", "yeast fitness": 0.894}

Your task in this section: give yeast fitness for each listed record.
1. U13A C61A A65G
2. U7G A43U
3. G23A A37U C49G C55G

[0.544, 0.914, 0.556]

The measured values listed here are drawn from the RNAGym collection of RNA variant scans (doi:10.1126/science.aae0568).
